experiment summary: In vitro cytotoxicity assay, HeLa cells (resazurin cell viability)
Assay type: cell-based
condition summary: human
endpoint: viability at 20 µM

Prompt line: Given Cc1cc(/C=C/C(=O)c2cc(Br)ccc2O)c(C)n1-c1ccccc1C(F)(F)F [Compound 10g] , state its recorded viability at 20 µM.
Response line: > 100%

Prompt line: Given Cc1cc(/C=C/C(=O)c2cc(Br)ccc2O)c(C)n1-c1cccc(C(F)(F)F)c1 [Compound 10e] , state its recorded viability at 20 µM.
Response line: > 100%

Prompt line: Given Cc1cc(/C=C/C(=O)c2cc(Br)ccc2O)c(C)n1-c1ccc(C(F)(F)F)cc1 [Compound 10f] , state its recorded viability at 20 µM.
Response line: > 100%

Prompt line: Given Cc1ccc(C(=O)/C=C/c2cc(C)n(-c3ccc([N+](=O)[O-])cc3)c2C)cc1 , state its recorded viability at 20 µM.
Response line: > 100%

Prompt line: Given Cc1cc(/C=C/C(=O)c2ccccc2)c(C)n1-c1ccc([N+](=O)[O-])cc1 , state its recorded viability at 20 µM.
Response line: 84.7%
